assay: Human HepG2 cell viability assay in 384 well format; assay type: toxicity, cell-based; set-up: dose 125 nL, time 70.5 hour; concentration not given beside the values; conditions: HepG2 cells, read-out: Inhibition
observation.type: cytotoxicity at 70.5 h (%)
Write it as a number; the unit % goes unstated.

Cc1ccc2nc(C)cc(C(=O)NC(C)c3nnn[nH]3)c2c1 (configuration not stated)    -0.653
O=C(Cc1ccccc1)NCc1ncc(-c2ccccc2C(=O)O)cn1    -4.73
CCOc1cc(C)nc(N2CCN(C(=O)c3cn[nH]c3CC)CC2)n1    -3.76
NC(=O)C(NC1CCN(CC2CCCCC2)CC1)c1ccc(F)cc1 (configuration not stated)    -9.96
COc1ccc(CC(=O)NC2CCc3nc(C)cn3C2)cc1 (configuration not stated)    -7.41

State its cytotoxicity at 70.5 h: N#Cc1ccc(NCCS(=O)(=O)N2CCc3ccccc32)nc1
13

State its cytotoxicity at 70.5 h: Cc1ccc(C(=O)N2CCCc3c(c(=O)n(C)n3C)C2)o1
11.7

State its cytotoxicity at 70.5 h: c1ccc2c(NC3CCc4ncnn4C3)ncnc2c1 (configuration not stated)
-4.29

State its cytotoxicity at 70.5 h: CCn1c(C)cc(C(=O)NCc2cccc(NS(C)(=O)=O)c2)c1C
16.2
